assay_system: CDK19 (human) (UniProt Q9BWU1)
Sequence (Q9BWU1 whole entry, looked up): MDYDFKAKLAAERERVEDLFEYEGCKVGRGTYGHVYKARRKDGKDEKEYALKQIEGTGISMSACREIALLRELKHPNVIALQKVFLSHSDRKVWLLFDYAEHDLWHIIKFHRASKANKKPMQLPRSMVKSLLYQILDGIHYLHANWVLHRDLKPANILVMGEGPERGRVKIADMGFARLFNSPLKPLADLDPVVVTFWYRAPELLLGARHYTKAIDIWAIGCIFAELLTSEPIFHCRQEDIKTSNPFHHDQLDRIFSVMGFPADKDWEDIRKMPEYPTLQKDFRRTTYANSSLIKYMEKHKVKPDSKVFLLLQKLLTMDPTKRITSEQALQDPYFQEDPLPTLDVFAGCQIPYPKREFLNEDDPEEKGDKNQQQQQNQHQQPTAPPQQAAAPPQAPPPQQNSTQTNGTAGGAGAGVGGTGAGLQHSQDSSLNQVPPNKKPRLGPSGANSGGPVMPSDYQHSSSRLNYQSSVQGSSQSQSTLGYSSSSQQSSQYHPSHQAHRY
experimental_details: KINOMEscan competition binding
assay_context: compound 10.0 µM
Below, each entry is listed alongside its reported kinase still bound, per cent of control.
Write the answer as a number in %, unit excluded.

Sample answers from the record:
                                   compound                            property_name  recorded_number
0  COc1cc(N2CCN(C)CC2)ccc1Nc1nc(N)c(C(=O)c2c(Cl)cccc2Cl)s1  kinase still bound, per cent of control               93
1  Cn1c(=O)n(-c2ccc(C(C)(C)C#N)cc2)c2c3cc(-c4cnc5ccccc5c4)ccc3ncc21  kinase still bound, per cent of control              100
2  Cc1cc([C@@H](C)Nc2ccccc2C(=O)O)c2nc(N3CCOCC3)cc(=O)n2c1  kinase still bound, per cent of control               91
3             Cc1ccc2nc(NCCN)c3ncc(C)n3c2c1  kinase still bound, per cent of control              100
4  COc1cc(C(=O)NC2CCN(C)CC2)ccc1Nc1ncc2c(n1)N(C1CCCC1)C(C)CC(=O)N2C (stereo not given)  kinase still bound, per cent of control              100

Given the entry `O=C(NOC[C@H](O)CO)c1ccc(F)c(F)c1Nc1ccc(I)cc1F` , report its measured kinase still bound, per cent of control.
100

Would you mind telling me what kinase still bound, per cent of control value was observed for `CC[C@@H]1C(=O)N(C)c2cnc(Nc3ccc(C(=O)NC4CCN(C)CC4)cc3OC)nc2N1C1CCCC1` ?
100

Consider the compound `CCC(=O)N1CCN(c2ccc(-n3c(=O)ccc4cnc5ccc(-c6cnc7ccccc7c6)cc5c43)cc2C(F)(F)F)CC1` and give its measured kinase still bound, per cent of control.
1.2

Need kinase still bound, per cent of control of `OCCCNc1cc(-c2ccnc(Nc3cccc(Cl)c3)n2)ccn1` , thanks.
100

Which kinase still bound, per cent of control value is on record for `CCOc1cc2ncc(C#N)c(Nc3ccc(OCc4ccccn4)c(Cl)c3)c2cc1NC(=O)/C=C/CN(C)C` ?
100

I have this compound here, `C=CC(=O)Nc1cccc(Oc2nc(Nc3ccc(N4CCN(C)CC4)cc3OC)ncc2Cl)c1` , and I need its recorded kinase still bound, per cent of control.
100

* * *

assay_system: MET (human)
experimental_details: KINOMEscan competition binding
assay_context: compound 10.0 µM
Threshold check on kinase still bound, per cent of control: strictly below 50% is true; on or above 50% is false.

In [3]: df
Out[3]:
                            molecule_smiles  answer_label
0  CN(C)C/C=C/C(=O)Nc1cccc(Nc2ncc3c(n2)N(C)c2ccccc2C(=O)N3C)c1          true
1  CCN1CCN(Cc2ccc(Nc3ncc4c(n3)N(C)c3ccccc3C(=O)N4C)cc2C(F)(F)F)CC1          true
2  Nc1ccc(-c2ccc3ncc4ccc(=O)n(-c5cccc(C(F)(F)F)c5)c4c3c2)cn1         false

Answer whether the molecule `O=C1Nc2ccc(I)cc2/C1=C/c1cc(Br)c(O)c(Br)c1` has kinase still bound, per cent of control strictly less than 50%
false

Please let me know if `CCCS(=O)(=O)Nc1ccc(F)c(C(=O)c2c[nH]c3ncc(-c4ccc(Cl)cc4)cc23)c1F` shows kinase still bound, per cent of control below 50%.
false

Is 50% strictly greater than the molecule's reported kinase still bound, per cent of control? molecule: `Cc1cc([C@@H](C)Nc2ccccc2C(=O)O)c2nc(N3CCOCC3)cc(=O)n2c1`
false

Is it true that kinase still bound, per cent of control reported for `C=CC(=O)Nc1cccc(Oc2nc(Nc3ccc(N4CCN(C)CC4)cc3OC)ncc2Cl)c1` is less than 50%?
true

Lab note: confirm whether the reported kinase still bound, per cent of control for this molecule is below 50%, equality not counting. molecule: `CCOc1cc2ncc(C#N)c(Nc3ccc(OCc4ccccn4)c(Cl)c3)c2cc1NC(=O)/C=C/CN(C)C`
false

These measurements were taken from the kinase profiling compilation of Christmann-Franck et al. (2016).
